- test.details: Microsomal stability assay, rat liver microsomes
- condition.description: female, Sprague-Dawley, rat, liver microsomes, pH 7.4, Microsomal stability assays: Half-life
endpoint.label: log10 of half-life at 0.08 µM (log10 of the value in min)

- molecule: "OCC(Cc1ccc(F)cc1)NCCCn1cccn1 (stereo not shown)"
  log10 of half-life at 0.08 µM: 1.26
- molecule: "CC(Cc1ccccc1)NCCCc1ccc(N)cc1 (stereo not shown)"
  log10 of half-life at 0.08 µM: 1.62
- molecule: "CCOC(=O)c1ccc(CCCNC(C)Cc2ccc(F)cc2)cc1 (stereo not shown)"
  log10 of half-life at 0.08 µM: 1.38
- molecule: "Nc1ccc(CC(CF)NCCCc2ccc(F)cc2)cc1 (stereo not shown)"
  log10 of half-life at 0.08 µM: 2.12
- molecule: "CC(Cc1ccccc1)NCCCc1ccc(-c2cncnc2)cc1 (stereo not shown)"
  log10 of half-life at 0.08 µM: 1.08
- molecule: "CC(Cc1ccc(Br)cc1)NCCCc1ccncc1 (stereo not shown)"
  log10 of half-life at 0.08 µM: 1.38
- molecule: "CC(Cc1ccc(F)cc1)NCCCc1ccc(N)cc1 (stereo not shown)"
  log10 of half-life at 0.08 µM: 1.38
- molecule: "CC(Cc1ccc(F)cc1)NCCCc1ccc(F)cc1 (stereo not shown)"
  log10 of half-life at 0.08 µM: 1.08
- molecule: "CC(Cc1ccncc1)NCCCc1ccc(F)cc1 (stereo not shown)"
  log10 of half-life at 0.08 µM: 1.26

Cited source: patent US11999676B2
